Where do these numbers come from? They come from patent US20110318339A1.

- assayTarget: recombinant human DLL4 (Cat# 1506-D4/CF, R&D Systems) (human) (UniProt Q9NR61)
- assayText: ELISA, DLL4 coated, Fab 100 nM
Quick list: ELISA absorbance at 450 nm per entry.
Use A450 as the unit, but write only the number.

Input line: For the binder shown here, Fab VH5-51_IGHD5-18*01>3_IGHJ4*01 G104T & V3-4_IGLJ1*01 (Fab, V domains shown) VH: EVQLVQSGAEVKKPGESLKISCKGSGYSFTSYWIGWVRQMPGKGLEWMGIIYPGDSDTRYSPSFQGQVTISADKSISTAYLQWSSLKASDTAMYYCARRGYSYTYDYFDYWGQGTLVTVSS VL: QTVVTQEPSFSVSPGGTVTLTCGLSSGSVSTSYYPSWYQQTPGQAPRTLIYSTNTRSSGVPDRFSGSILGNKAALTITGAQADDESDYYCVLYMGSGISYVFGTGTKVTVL , give the reported ELISA absorbance at 450 nm.
Output line: 0.17

Input line: For the binder shown here, Fab VH5-51_IGHD5-18*01>3_IGHJ4*01 G100K/G104T G24T/S28R/G35V Y105N & V3-4_IGLJ1*01 (Fab, V domains shown) VH: EVQLVQSGAEVKKPGESLKISCKTSGYRFTSYWIVWVRQMPGKGLEWMGIIYPGDSDTRYSPSFQGQVTISADKSISTAYLQWSSLKASDTAMYYCARRKYSYTNDYFDYWGQGTLVTVSS VL: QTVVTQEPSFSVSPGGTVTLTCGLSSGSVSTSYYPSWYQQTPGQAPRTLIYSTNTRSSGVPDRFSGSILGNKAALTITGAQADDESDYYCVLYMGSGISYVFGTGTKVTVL , give the reported ELISA absorbance at 450 nm.
Output line: 0.25

Input line: For the binder shown here, Fab VH5-51_IGHD5-18*01>3_IGHJ4*01 G100K & V3-4_IGLJ1*01 (Fab, V domains shown) VH: EVQLVQSGAEVKKPGESLKISCKGSGYSFTSYWIGWVRQMPGKGLEWMGIIYPGDSDTRYSPSFQGQVTISADKSISTAYLQWSSLKASDTAMYYCARRKYSYGYDYFDYWGQGTLVTVSS VL: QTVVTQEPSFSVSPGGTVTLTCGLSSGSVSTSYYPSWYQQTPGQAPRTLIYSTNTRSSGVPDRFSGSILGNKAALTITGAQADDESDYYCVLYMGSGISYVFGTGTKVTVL , give the reported ELISA absorbance at 450 nm.
Output line: 0.2

Input line: For the binder shown here, Fab VH5-51_IGHD5-18*01>3_IGHJ4*01 G100K/G104T G24T/S28R/G35V Y105H & V3-4_IGLJ1*01 (Fab, V domains shown) VH: EVQLVQSGAEVKKPGESLKISCKTSGYRFTSYWIVWVRQMPGKGLEWMGIIYPGDSDTRYSPSFQGQVTISADKSISTAYLQWSSLKASDTAMYYCARRKYSYTHDYFDYWGQGTLVTVSS VL: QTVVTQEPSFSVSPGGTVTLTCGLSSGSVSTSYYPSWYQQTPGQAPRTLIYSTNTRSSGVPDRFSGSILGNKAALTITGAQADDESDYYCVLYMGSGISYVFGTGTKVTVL , give the reported ELISA absorbance at 450 nm.
Output line: 0.23

Input line: For the binder shown here, Fab VH5-51_IGHD5-18*01>3_IGHJ4*01 G100K/G104T G24T/S28R/G35V Y107F & V3-4_IGLJ1*01 (Fab, V domains shown) VH: EVQLVQSGAEVKKPGESLKISCKTSGYRFTSYWIVWVRQMPGKGLEWMGIIYPGDSDTRYSPSFQGQVTISADKSISTAYLQWSSLKASDTAMYYCARRKYSYTYDFFDYWGQGTLVTVSS VL: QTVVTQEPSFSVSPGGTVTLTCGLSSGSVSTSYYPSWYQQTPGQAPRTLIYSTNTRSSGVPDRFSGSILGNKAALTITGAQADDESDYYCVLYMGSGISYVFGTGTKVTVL , give the reported ELISA absorbance at 450 nm.
Output line: 0.28

Input line: For the binder shown here, Fab VH5-51_IGHD5-18*01>3_IGHJ4*01 G100K/G104T G24T/S28R/G35V D109Q & V3-4_IGLJ1*01 (Fab, V domains shown) VH: EVQLVQSGAEVKKPGESLKISCKTSGYRFTSYWIVWVRQMPGKGLEWMGIIYPGDSDTRYSPSFQGQVTISADKSISTAYLQWSSLKASDTAMYYCARRKYSYTYDYFQYWGQGTLVTVSS VL: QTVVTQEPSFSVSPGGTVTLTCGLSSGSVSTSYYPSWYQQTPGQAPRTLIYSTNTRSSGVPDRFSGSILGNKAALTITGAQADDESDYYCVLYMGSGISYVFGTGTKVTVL , give the reported ELISA absorbance at 450 nm.
Output line: 0.3
